# Test system: MS2 coat protein
# Experimental Details: apparent KD of MS2 coat protein; designed switch direction (-1 OFF switch, 1 ON switch): -1; higher = weaker reporter binding
# Condition: input ligand: microRNA oligo, concentration not stated
Class (required): determined from apparent KD of MS2 coat protein; valid ranges are label 0 = under 20 nM, label 1 = from 20 nM up to 100 nM, label 2 = 100 nM and over

Monomer Sequence	Answer Label
ACAUGUAAUGUAGGAUAUUUUACACAUGAGGAUCACCCAUGUAACCGGAGGCUUUACUAUGAGUAAGAGAAGGGUAUGUACAUG [Ex NG2 #63] (Eterna round: R96, puzzle: Exclusion NG 2)	label 1
CUUAGUUGGUAAGGAUAUCCUACAUUAUUCUGACCCGUGCAAGCUACAUGAGGAUCACCCAUGUGGGAGAAGGUGCGUUAAUGU [Design 6] (Eterna round: R96, puzzle: Exclusion NG 2)	label 0
ACAUGUAUUGCAGGAUAUGGGACACAUGAGGAUCACCCAUGUGACUACAUGUCAUGCCACGGGUCUCAGAAGGGUAUGUACAUG [Ex NG2 #41] (Eterna round: R96, puzzle: Exclusion NG 2)	label 0
GCCAGAGGAGGAUAUCUAAUAUAUCACAUGAGGAUCACCCAUGUCCAGCGAAAGCUGGAGGGAGAAGGCCUCUGGC [Fiskers Ex 5 - 23] (Eterna round: R96, puzzle: Exclusion 5)	label 2
CUAUCUUGCAAGGAUAUGCAAUUUAUUAUUUAUGCAGAAGGUGCUACAUGAGGAUCACCCAUGUUUCUGGGUUU [JR_E6_Sub046] (Eterna round: R96, puzzle: Exclusion 6)	label 2
ACUAGAUGAGGAUAUGCACAUUUUAGUGUUCCUCUAGAUUAACAUGAGGAUCACCCAUGUAGAAGGCGUCAUUU [Exclusion 2 - 13] (Eterna round: R96, puzzle: Exclusion 2)	label 1
CUUUUGUGAGGAUAUUAGUAGUAAAUAAAUAAAAUUAUUACUGAGAAGGCACAUGAGGAUCACCCAUGUUCCUC [salish99_ex4_r3_062] (Eterna round: R96, puzzle: Exclusion 4)	label 1
UGUUGUCGCGCAGGAUAUGGCCAACAGGCCCUAGGAUAUCGGAAACGAGAAGGAGCGCCAACAGGCGAGAAGGGCGGGACAACU [pwkr exNG2 2xF7 2xFMN.18] (Eterna round: R96, puzzle: Exclusion NG 2)	label 2
UUAAAUCAUGUAGGAUAUGCGUGGAGAAACUAUGCAGAAGGACAUGAGGAUCACCCAUGUGCUUCCGUCUGCGUACAGAUGGUA [Mat - Exclusion NG 1 - Mod of JL - D8] (Eterna round: R96, puzzle: Exclusion NG 1)	label 1

---

# Tested on: MS2 coat protein
# Experimental Details: apparent KD of MS2 coat protein; designed switch direction (-1 OFF switch, 1 ON switch): -1; higher = weaker reporter binding
# Condition: input ligand: FMN 200 uM

Monomer Sequence	Display Unit	apparent KD of MS2 coat protein
GGCGAGCGAGGAUAUACAGGGUAUCCGACUCGCCGCGGGCGACAUGAGGAUCACCCAUGUAGAAGGCGCACGCG [EX2 A.18] (Eterna round: R97, puzzle: Exclusion 2)	nM	13.9
AGGUGCUUCUGGAGACAUGAGGAUCACCCAUGUUGAGUUAGCGAGGAUAUCGGUAACGCAUGUGAUGAGAAGGCGCAAACCAAU [Ex NG3 #47] (Eterna round: R96, puzzle: Exclusion NG 3)	nM	79.7
UAUUCGCGAGGAUAUGCAUUCGAGUCCAUUACGUGUCUGGGACUUGAGGAUCACCCAAGUAGAAGGCGUCUCAU [salish99_ex2_r4_643] (Eterna round: R97, puzzle: Exclusion 2)	nM	99.7
UACAUGAGGAUCACCCAUGUUUUGUCGUGUAUGGUACCCGUUUAGGAUAUCGUGUUAUUGGACCGCGAGAAGGAGAGUAUCAAU [Excl-NG3-LRO04] (Eterna round: R96, puzzle: Exclusion NG 3)	nM	26.5
AUCCAGCUAGGAUAUGCAGAGGCGAUCGCGGGCAUGUCCCAACAUGAGGAUCACCCAUGUAGAAGGAGCCAAGG [Eternabot (Original) Solution 48] (Eterna round: R97, puzzle: Exclusion 2)	nM	76.1
ACAUGAGGAUCACCCAUGUCCGUCUGGUCUGUCUCGGCUGUCGAGGAUAUAGCUCGGUAUCCGCGCUAGAAGGCGGGAGCCGGU [Aenatbe mod 92] (Eterna round: R96, puzzle: Exclusion NG 3)	nM	30.9
AUAUAGAUAGUCAGGAUAUGCUAGUGAUAACAGUAGUAGAAGGGACAUGAGGAUCACCCAUGUAGAUAGUGCAC [Brourd's EX4 #4] (Eterna round: R97, puzzle: Brourd's mod of Exclusion 4)	nM	32.6
UUGAAUUAUAAGGAUAUGGGAGUCGAUAGACACCCAGAAGGUAUAACAUGAGGAUCACCCAUGUGUCCUAUCAA [Mod of Eli 25 - Jieux - Exclusion 6] (Eterna round: R97, puzzle: Exclusion 6)	nM	33.6
ACAAGCAGAGAGUAAAUGGACAUGAGGAUCACCCAUGUGAGUCCAAGGAGAUAAGAUAUUAAAAAGGCUCGUCUUAU [AK-miRNA-r3-19] (Eterna round: R97, puzzle: Sensor, turn-off variant 1)	nM	112
